Measurement Target: APOL1 G1 Protein (Homo sapiens, UniProt O14791, I384M/S342G)
Sequence (O14791 28-398 S342G/I384M): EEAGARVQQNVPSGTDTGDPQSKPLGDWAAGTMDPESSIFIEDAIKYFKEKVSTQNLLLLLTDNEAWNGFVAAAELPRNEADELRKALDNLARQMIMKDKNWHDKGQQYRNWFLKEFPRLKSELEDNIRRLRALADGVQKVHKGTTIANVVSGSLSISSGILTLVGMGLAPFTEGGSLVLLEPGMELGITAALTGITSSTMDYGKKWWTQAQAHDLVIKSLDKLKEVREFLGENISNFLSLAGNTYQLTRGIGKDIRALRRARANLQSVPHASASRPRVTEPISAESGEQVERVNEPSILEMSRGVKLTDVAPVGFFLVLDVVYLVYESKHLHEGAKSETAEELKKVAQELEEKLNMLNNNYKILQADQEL
Test Name: Trypanosoma brucei brucei Lysis Assay Using APOL1 Recombinant Protein (AlamarBlue viability)
Condition Details: read-out: Trypanosomal Assay (IC50)
pIC50: −log10 of the molar value.
Measured Parameter: pIC50

Data request, read-out pIC50, for `NCCCCc1c(-c2ccc(F)cc2)[nH]c2c(F)cc(F)cc12`
> 6.60

Data request, read-out pIC50, for O=C(CCc1c(-c2ccc(F)cc2)[nH]c2ccc(F)cc12)N1CCC(F)C1 (stereo not drawn)
< 6.00

Data request, read-out pIC50, for CCNC(=O)C(C)NC(=O)CCc1c(-c2ccc(F)cc2)[nH]c2ccc(F)cc12 (racemic)
6.00 to 6.60

Data request, read-out pIC50, for `CC(C)(C)OC(=O)NC1CN(C(=O)CCc2c(-c3ccc(F)cc3)[nH]c3ccc(F)cc23)C1`
< 6.00

Data request, read-out pIC50, for `O=C(CCc1c(-c2ccc(F)cc2)[nH]c2ccc(F)cc12)N[C@H]1CC[C@@H]1O`
6.00 to 6.60

Data request, read-out pIC50, for `O=C(CCc1c(-c2ccc(F)cc2)[nH]c2c(F)cc(F)cc12)N1CCC[C@H]1CO`
< 6.00

Data request, read-out pIC50, for CC(O)C(=O)NCCCc1c(-c2ccc(F)cc2)[nH]c2ccc(F)cc12 (racemic)
6.00 to 6.60

Data request, read-out pIC50, for `CC(C)C[C@H](CO)NC(=O)CCc1c(-c2ccc(F)cc2)[nH]c2c(F)cc(F)cc12`
< 6.00

Data request, read-out pIC50, for O=C(CCc1c(-c2ccc(F)cc2)[nH]c2c(F)cc(F)cc12)NC1CCC1(F)F (stereo not drawn)
< 6.00

* * *

Hi there, I'd appreciate the recorded IC50 for every entry that follows.
Measurement Target: G1 APOL1 (Homo sapiens, UniProt O14791, I384M/S342G)
Construct: expressed in transfected cells
Sequence (O14791 28-398 S342G/I384M): as above
Test Name: Acute APOL1 Thallium Assay with Inducible Stable Clones of HEK 293 Cells
Assay type: cell-based
Condition Details: HEK 293 inducible stable clones, G1 APOL1; read-out: Thallium Assay (IC50)

Data request, read-out IC50, for CC(C)(NC(=O)CCc1c(-c2ccc(F)cc2)[nH]c2c(F)cc(F)cc12)C(F)(F)F [Compound 182]
> 1000 nM

Data request, read-out IC50, for O=C(NCc1cccnc1)OCCc1c(-c2ccc(F)cc2)[nH]c2c(F)cc(F)cc12 [Compound 497]
> 1000 nM

Data request, read-out IC50, for NC(=O)[C@H](CO)NC(=O)OCCc1c(-c2ccc(F)cc2)[nH]c2c(F)cc(F)cc12 [Compound 475]
> 1000 nM

* * *

Hi there, I'd appreciate the recorded IC50 for every entry that follows.
Measurement Target: APOL1 G1 Protein (Homo sapiens, UniProt O14791, I384M/S342G)
Test Name: Trypanosoma brucei brucei Lysis Assay Using APOL1 Recombinant Protein (AlamarBlue viability)
Condition Details: read-out: Trypanosomal Assay (IC50)

Data request, read-out IC50, for CC1(C)COC(=O)C1NC(=O)CCc1c(-c2ccc(F)cc2)[nH]c2c(F)cc(F)cc12 (centres unmarked)
> 1000 nM

Data request, read-out IC50, for `NC(=O)CCc1c(-c2ccc(F)cc2)[nH]c2ccc(F)cc12`
> 1000 nM

Data request, read-out IC50, for `C[C@@H](CO)NC(=O)CCc1c(-c2ccc(F)cc2)[nH]c2ccc(F)cc12`
250 to 1000 nM

Data request, read-out IC50, for CC1(NC(=O)OC(C)(C)C)CCN(C(=O)CCc2c(-c3ccc(F)cc3)[nH]c3ccc(F)cc23)C1 (centres unmarked)
> 1000 nM

Data request, read-out IC50, for `O=C(CCc1c(-c2ccc(F)cc2)[nH]c2c(F)cc(F)cc12)NC(CO)(CO)CO`
250 to 1000 nM

Data request, read-out IC50, for `O=C(CCc1c(-c2ccc(F)cc2)[nH]c2ccc(F)cc12)NC(CO)CO`
250 to 1000 nM

Data request, read-out IC50, for O=C(CCc1c(-c2ccc(F)cc2)[nH]c2ccc(F)cc12)N1CCC(O)C1 (centres unmarked)
> 1000 nM

Data request, read-out IC50, for O=C(CCc1c(-c2ccc(F)cc2)[nH]c2c(F)cc(F)cc12)NC1CCOC1 (centres unmarked)
> 1000 nM

* * *

Measurement Target: G1 APOL1 (Homo sapiens, UniProt O14791, I384M/S342G)
Construct: expressed in transfected cells
Test Name: Acute APOL1 Thallium Assay with Inducible Stable Clones of HEK 293 Cells
Format: cell-based
Condition Details: HEK 293 inducible stable clones, G1 APOL1; read-out: Thallium Assay (IC50)
pIC50: −log10 of the molar value.
Measured Parameter: pIC50

Data request, read-out pIC50, for CC(CC(=O)NC(CO)C(F)(F)F)c1c(-c2ccc(F)cc2)[nH]c2c(F)cc(F)cc12 (single isomer, unassigned) [Compound 514]
< 6.00

Data request, read-out pIC50, for OCCCc1c(-c2ccc(F)cc2)[nH]c2c(F)cc(F)cc12 [Compound 517]
> 6.60

Data request, read-out pIC50, for O=C(NCCc1c(-c2ccc(F)cc2)[nH]c2c(F)cc(F)cc12)c1cncc(F)c1 [Compound 377]
< 6.00

Data request, read-out pIC50, for O=C(CCc1c(-c2ccc(F)cc2)[nH]c2ccc(F)cc12)Nc1cn[nH]c1 [Compound 46]
< 6.00

Data request, read-out pIC50, for O=C(NCCc1c(-c2ccc(F)cc2)[nH]c2c(F)cc(F)cc12)c1nc(C(F)(F)F)cs1 [Compound 368]
< 6.00

Data request, read-out pIC50, for CC(CO)N(C)C(=O)CCc1c(-c2ccc(F)cc2)[nH]c2ccc(F)cc12 (stereo not drawn) [Compound 51]
< 6.00

Data request, read-out pIC50, for CC(CO)NC(=O)CCc1c(-c2ccc(F)cc2)[nH]c2ccc(F)cc12 (racemic) [Compound 9]
> 6.60

Data request, read-out pIC50, for O=CNCCc1c(-c2ccc(F)cc2)[nH]c2c(F)cc(F)cc12 [Compound 419]
< 6.00

Data request, read-out pIC50, for O=C(CCc1c(-c2ccc(F)cc2)[nH]c2c(F)cc(F)cc12)NCc1ncco1 [Compound 153]
< 6.00

Data request, read-out pIC50, for O=C(CN1CCCC1=O)NCCc1c(-c2ccc(F)cc2)[nH]c2c(F)cc(F)cc12 [Compound 375]
< 6.00

Data request, read-out pIC50, for Cn1cc(C(=O)NCCc2c(-c3ccc(F)cc3)[nH]c3c(F)cc(F)cc23)cn1 [Compound 391]
< 6.00

Data request, read-out pIC50, for CC1(C(=O)NCCc2c(-c3ccc(F)cc3)[nH]c3c(F)cc(F)cc23)CCC(=O)NC1 (stereo not drawn) [Compound 319]
< 6.00

* * *

Measurement Target: APOL1 G1 Protein (Homo sapiens, UniProt O14791, I384M/S342G)
Test Name: Trypanosoma brucei brucei Lysis Assay Using APOL1 Recombinant Protein (AlamarBlue viability)
Condition Details: read-out: Trypanosomal Assay (IC50)
pIC50: −log10 of the molar value.
Hi there, I'd appreciate the recorded pIC50 for every entry that follows.

Record lookup: for APOL1 G1 Protein (Homo sapiens, UniProt O14791, I384M/S342G), what pIC50 belongs to O=C(CCc1c(-c2ccc(F)cc2)[nH]c2c(F)cc(F)cc12)N1CCCC1CCO (stereo not drawn) ?
< 6.00

Record lookup: for APOL1 G1 Protein (Homo sapiens, UniProt O14791, I384M/S342G), what pIC50 belongs to NC1CCC(NC(=O)CCc2c(-c3ccc(F)cc3)[nH]c3ccc(F)cc23)C1 (stereo not drawn) ?
< 6.00

Record lookup: for APOL1 G1 Protein (Homo sapiens, UniProt O14791, I384M/S342G), what pIC50 belongs to `C[C@H](CO)NC(=O)CCc1c(-c2ccc(F)cc2)[nH]c2c(F)cc(F)cc12` ?
> 6.60

Record lookup: for APOL1 G1 Protein (Homo sapiens, UniProt O14791, I384M/S342G), what pIC50 belongs to `O=C(CCc1c(-c2ccc(F)cc2)[nH]c2ccc(F)cc12)NC1CC(F)(F)C1` ?
< 6.00

Record lookup: for APOL1 G1 Protein (Homo sapiens, UniProt O14791, I384M/S342G), what pIC50 belongs to CCC(C)(CO)NC(=O)CCc1c(-c2ccc(F)cc2)[nH]c2ccc(F)cc12 (racemic) ?
< 6.00

Record lookup: for APOL1 G1 Protein (Homo sapiens, UniProt O14791, I384M/S342G), what pIC50 belongs to `O=C(CCc1c(-c2ccc(F)cc2)[nH]c2c(F)cc(Br)cc12)N[C@@H](CO)C(F)(F)F` ?
> 6.60

Record lookup: for APOL1 G1 Protein (Homo sapiens, UniProt O14791, I384M/S342G), what pIC50 belongs to `C[C@@H](O)[C@H](CO)NC(=O)CCc1c(-c2ccc(F)cc2)[nH]c2ccc(F)cc12` ?
6.00 to 6.60

Record lookup: for APOL1 G1 Protein (Homo sapiens, UniProt O14791, I384M/S342G), what pIC50 belongs to `O=C(CCc1c(-c2ccc(F)cc2)[nH]c2ccc(F)cc12)N[C@H]1CC[C@H]1O` ?
6.00 to 6.60

Record lookup: for APOL1 G1 Protein (Homo sapiens, UniProt O14791, I384M/S342G), what pIC50 belongs to `O=C(CCc1c(-c2ccc(F)cc2)[nH]c2c(F)cc(F)cc12)N[C@H](CO)C(F)(F)F` ?
6.00 to 6.60

The origin of these recorded values is patent US20230014907A1.
